# Test system: MDA-MB-231 breast
# assay_info: NCI tumour cell line growth inhibition, 48 h; in the data active = GI50 below about 0.43 µM; inactive = the rest
Give your call using only these classes: TRUE for active, FALSE for inactive

# count of solved cases: 5
compound	assigned_label
COc1cc(/C=C/c2cc(O)c(C(C)=O)c(O)c2)cc2c1O[C@]1(C)CC[C@@H](O)C(C)(C)[C@H]1C2	FALSE
O=C1OC(O)[C@@H]2[C@H]1[C@H]1CC[C@@H]2O1 (stereo partly drawn)	FALSE
CCN(CC)c1ccc(-c2cc(-c3cc(OC)c(OC)c(OC)c3)nc(N3CCOCC3)c2C#N)cc1	FALSE
COc1cc2c3c(n(C)c(=O)c2cc1OC)-c1cc2c(cc1/C3=C\CCCN)OCO2	FALSE
COc1cccc(-c2nc(-c3ccc(NC(=O)C(C)C)cc3)[nH]c2-c2ccnc(Br)c2)c1	FALSE

Exercise: What did this assay record as the result for `COc1ccc(-c2nnc(COc3ccc(C(=O)/C=C/c4ccco4)cc3)o2)cc1` ?
Solution: FALSE

Exercise: What did this assay record as the result for `COc1ccc([C@H]2[C@@H](F)C(=O)N2c2cc(OC)c(OC)c(OC)c2)cc1F` ?
Solution: TRUE

Exercise: What did this assay record as the result for `CN(C(=O)c1ccc(C(F)(F)F)cc1)c1ccc(Oc2ccc3c(c2)cc(C(=O)N2CCN(Cc4ccc(OC(F)F)cc4)CC2)n3C)nc1` ?
Solution: FALSE
